The reported measurements were obtained from the supplement of paper PMC10567573.

B1: DVL3 (parent)
chain: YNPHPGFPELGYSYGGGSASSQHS

Variants of: B1
Test: protein stability index of a GFP-peptide fusion (GPS, HEK-293T) (PSI 1-6); higher = more stable;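 also: lentivirally expressed fusions sorted by FACS into six bins by GFP to DsRed ratio, PSI derived from sequencing read proportions per bin multiplied by bin number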
Settings: c terminus: a fixed tail appended
Each entry below carries its recorded protein stability index.
Output: the number by itself.

# example entries with known answers
> print(dat)
   change                  readout  endpoint.value
1    S13N  protein stability index            3.08
2    S13A  protein stability index            2.95
3     E9L  protein stability index            3.13

Briefly, protein stability index measured for S24N : 2.42

Briefly, protein stability index measured for G17R : 2.82
